- testedSystem: human TRPV1 channel (Homo sapiens)
- Sequence (Q8NER1 whole entry): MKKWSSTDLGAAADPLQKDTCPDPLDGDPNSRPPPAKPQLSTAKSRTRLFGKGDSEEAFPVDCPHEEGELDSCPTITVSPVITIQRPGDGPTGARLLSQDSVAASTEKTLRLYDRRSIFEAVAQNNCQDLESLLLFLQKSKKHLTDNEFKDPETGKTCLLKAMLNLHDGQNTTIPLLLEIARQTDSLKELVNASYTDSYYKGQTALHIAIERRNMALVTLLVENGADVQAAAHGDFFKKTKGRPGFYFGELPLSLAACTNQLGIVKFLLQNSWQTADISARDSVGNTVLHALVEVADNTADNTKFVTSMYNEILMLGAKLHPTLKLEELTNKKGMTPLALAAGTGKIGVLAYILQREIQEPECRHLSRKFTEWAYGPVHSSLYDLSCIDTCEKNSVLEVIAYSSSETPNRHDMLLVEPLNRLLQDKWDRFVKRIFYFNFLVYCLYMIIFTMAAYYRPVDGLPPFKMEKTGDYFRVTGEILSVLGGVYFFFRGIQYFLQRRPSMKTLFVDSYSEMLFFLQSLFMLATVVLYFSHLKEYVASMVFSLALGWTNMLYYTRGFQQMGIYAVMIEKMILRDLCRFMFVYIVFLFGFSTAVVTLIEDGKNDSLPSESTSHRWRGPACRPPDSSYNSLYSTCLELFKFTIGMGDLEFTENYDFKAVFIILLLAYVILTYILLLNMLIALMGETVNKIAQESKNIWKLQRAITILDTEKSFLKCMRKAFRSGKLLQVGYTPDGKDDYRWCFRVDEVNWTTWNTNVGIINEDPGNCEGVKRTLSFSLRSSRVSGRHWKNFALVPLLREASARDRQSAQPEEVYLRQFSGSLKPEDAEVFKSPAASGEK
- assayRemarks: TRPV1 channel Ca2+ fluorescent
endpointName: EC50

[[record]]
chemicalstructure = "CCCCC/C=C\\C/C=C\\C/C=C\\C/C=C\\CCCC(=O)NCCO"
valueobserved = "2100 nM"

